k el listing for selected compounds.
# assay_method_text: Compound was evaluated for rate of clearance by using IPRL (Isolated Perfused Rat Liver)
# Type: ADME
reported_property: k el (s⁻¹)

>>> observed_measurement("CCCOc1nc(N[C@@H](Cc2ccc(NC(=O)c3c(Cl)cncc3Cl)cc2)C(=O)O)nc(OCCC)n1")
"5.56e-05"
>>> observed_measurement("COc1nc(N[C@@H](Cc2ccc(OCc3c(Cl)cccc3Cl)cc2)C(=O)O)nc(OC)n1")
0.000611
>>> observed_measurement("COc1nc(N[C@@H](Cc2ccc(NC(=O)c3c(Cl)cncc3Cl)cc2)C(=O)O)nc(Oc2ccccc2)n1")
0.000167
>>> observed_measurement("COc1nc(N[C@@H](Cc2ccc(NC(=O)c3c(Cl)cncc3Cl)cc2)C(=O)O)nc(N2CCC(C(=O)O)CC2)n1")
0.000583
>>> observed_measurement("COc1nc(N[C@@H](Cc2ccc(NC(=O)c3c(Cl)cncc3Cl)cc2)C(=O)O)nc(OC)n1")
0.000306
>>> observed_measurement("O=C(Nc1ccc(C[C@H](Nc2cc(Cl)ncn2)C(=O)O)cc1)c1c(Cl)cncc1Cl")
0.000583
>>> observed_measurement("CCCOc1nc(N[C@@H](Cc2ccc(NC(=O)c3c(Cl)cncc3Cl)cc2)C(=O)O)nc(OC)n1")
0.000639
>>> observed_measurement("COc1nc(N[C@@H](Cc2ccc(NC(=O)c3c(Cl)cncc3Cl)cc2)C(=O)O)nc(N2CCNCC2)n1")
0.000583

Ref: ChEMBL document CHEMBL1135143
